# targetDesc: T1, SHANK1, Q9Y566
# T1 sequence (Q9Y566 658-767, limits assumed, looked up): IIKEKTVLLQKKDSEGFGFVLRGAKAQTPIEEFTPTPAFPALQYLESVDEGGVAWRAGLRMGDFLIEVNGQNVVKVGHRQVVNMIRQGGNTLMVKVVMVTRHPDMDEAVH
# testName: holdup assay
# Parameters: key: below the threshold = too weak to quantify, mostly under pKd 3.1 to 4
# conditionLabel: plain residues with an end cap or a label only (N-terminal biotin on a linker: ado-ado)
measuredProperty: pKd

Known results for binders:
Please report the recorded pKd for PLPPEEESWV [GAS2L2, Q8NHY3] .
4.62

Requested field: pKd. Item: QKNKDREYYV [NRXN3, Q9HDB5]
below the threshold

Given the entry EKPIDSETKM [SLC1A3, P43003] , report its measured pKd.
3.76

Sample THREVKFTSL [CD46, P15529] — what was its pKd?
4.39

What measured pKd goes with VISSDDLTEL [CAPN6, Q9Y6Q1] ?
4.84

Consider the binder shown here: FLVTEFNVML [DFNB31, Q9P202] What is its recorded pKd?
3.84

Need pKd, item KLQNPNQSVV [TYRP1, P17643]
below the threshold

***
Recorded pKd of VYEVPVETKF [SLC26A3, P40879] , please.
4.63

Origin of measurements: paper PMC9482650
